# System: CCRF-CEM
# TEST NAME: NCI tumour cell line growth inhibition, 48 h
The source made the active and inactive calls. Cut-off read from the data, not from the text of the source: active = GI50 up to about 1.1 µM and inactive = higher.
Outcome codes: YES = active, NO = inactive

INSERT INTO assay_data (molecule, label_value) VALUES
  ('CC(=O)OCC1OC(c2nnc(C)o2)=CC(OC(C)=O)C1OC(C)=O (stereo not given)', 'NO'),
  ('COc1ccc2c(c1)c1c(n2CCN2CCOCC2)-c2cccc(OC)c2CC1', 'NO'),
  ('Cc1ccc(C(O)(c2ccc(C)cc2)c2ccccn2)cc1', 'NO'),
  ('CN1C(=O)CSC1=S [3-METHYL-RHODANINE]', 'NO'),
  ('CCOC(=O)Cn1c(C)nc2nn(Cc3ccccc3)cc2c1=O', 'NO'),
  ('c1ccc(COC[C@H]2C3OCC([C@H](OCc4ccccc4)[C@H]3OCc3ccccc3)N2Cc2ccccc2)cc1 (stereo not given in full)', 'NO'),
  ('CCOc1ccccc1NC(=O)C(=O)C(/C(=N/N)C(=O)OC)c1nc2ccc([N+](=O)[O-])cc2nc1O (stereo not given)', 'NO'),
  ('N/N=C1\CCCc2c1no[n+]2[O-]', 'NO'),
  ('N#CC(C(=O)C(=O)NCCCNC(=O)C(=O)C(C#N)c1ccccc1)c1ccccc1 (stereo not given)', 'NO'),
  ('CC(NNC(=O)c1cc[n+]([BH2-]C#N)cc1)c1ccc(Cl)c(Cl)c1 (stereo not given)', 'NO'),
  ('COc1ccc(Nc2nnc(-c3nsc4ccccc34)s2)cc1', 'NO'),
  ('CN(C)CCOC1(Cc2ccc(Cl)cc2Cl)CCC(C(C)(C)C)CC1 (stereo not given)', 'NO'),
  ('CN(C)c1ccc(/C=C2\N=C(c3ccccc3)N(c3nc4c(Cl)cc(Cl)cc4s3)C2=O)cc1', 'YES'),
  ('CC1CCC2(CC1)N=C1CCC(C)CC1C1(CCC(C)CC1)N2 (stereo not given)', 'NO'),
  ('CC1N=C(c2ccccc2)OC1=O (stereo not given)', 'NO'),
  ('C=C[C@@]12CCCCC1C/C(=C(/O)OC)C(=O)C2 (stereo not given in full)', 'NO'),
  ('O=C1C2c3[nH]c4ccccc4c3C3CCSCC3C2C(=O)N1c1ccccc1 (stereo not given)', 'NO'),
  ('O=C(O)c1nccnc1C(=O)O', 'NO'),
  ('c1c[nH]c(CN2CCN(Cc3ncc[nH]3)CC2)n1', 'NO'),
  ('CCC(C)[C@H](NC(=O)N[C@H](C)c1ccccc1)C(=O)OC (stereo not given in full)', 'NO'),
  ('Cn1cc2ccccc2c1-c1nc(F)nc(Oc2ccc3c(c2)CC[C@@H]2C3CC[C@@]3(C)C2C[C@H](O)[C@@H]3O)n1 (stereo not given in full)', 'NO'),
  ('c1ccc(-c2cc(-c3cccs3)c(-c3cccs3)s2)cc1', 'NO'),
  ('O=[N+]([O-])c1ccc(-c2csc(=[N+]3CCCCC3)s2)cc1', 'NO'),
  ('COC(=O)c1ccc(NCc2cc(OC)ccc2OC)cc1', 'NO'),
  ('CCOc1cc2cnc3c4cc(OC)c(OC)cc4ccc3c2cc1OC', 'NO'),
  ('CC1(C)OC2[C@@H](CO[C@@]3([C@@H](O)CCO)OC(C)(C)O[C@@H]23)O1 (stereo not given in full)', 'NO'),
  ('COc1ccc(-c2c(-c3ccccc3)c(C)c3ccccn23)cc1', 'NO'),
  ('O=C(Nc1ccccc1Cl)c1cc(S(=O)(=O)Nc2n[nH]c(=O)n2-c2ccccc2)c(S)cc1Cl', 'NO'),
  ('CC(C)c1cccc(C(C)C)c1NC1=CC(=O)C(=O)c2ccccc21', 'NO'),
  ('Cc1ccc2nc(N/N=C/c3sccc3C)cc(C)c2c1', 'NO'),
  ('CCOC(O)C(F)(F)F (stereo not given)', 'NO'),
  ('CC1OC(OC2C(OC(=O)[C@]34CCC(C)(C)CC3C3=CCC5[C@@]6(C)C[C@H](O)[C@H](OC7OC(COC8OC(CO)C(O)C(O)C8O)C(O)C(O)C7O)[C@@](C)(C(=O)O)C6CC[C@@]5(C)C3(C)CC4)OCC(O)C2O)C(O)C(O)C1OC1OCC(O)C(O)C1O (stereo not given in full)', 'NO'),
  ('CC1=NC(=Cc2ccc(Cl)cc2)C(=O)N1n1c(-c2ccccc2)nc2ccccc2c1=O', 'NO'),
  ('CCOC(=O)c1cn(-c2ccc([N+](=O)[O-])cc2)c(=S)n2c1nc1ccccc12', 'NO'),
  ('O=C(O)c1ccccc1C(=O)Nc1cc2c(cc1Br)-c1ccccc1C2=O', 'NO'),
  ('O=c1c(Cc2c(O)ccc3ccccc23)nnc2sc(-c3nn4c(=O)c(Cc5c(O)ccc6ccccc56)nnc4s3)nn12', 'NO'),
  ('COC1CC(C)(NC(=O)C(F)(F)F)C2OC(c3ccccc3)OCC2O1 (stereo not given)', 'NO'),
  ('COC(=O)C(=O)C(C(=O)C(=O)Nc1cccc(C(C)=O)c1)c1nc2ccc([N+](=O)[O-])cc2nc1O (stereo not given)', 'NO'),
  ('CC[C@@H]1CC[C@@H]2[C@H](CC[C@]3(C)[C@@H](OS(=O)(=O)c4ccc(C)cc4)CC[C@@H]23)[C@H]1CO', 'NO'),
  ('COc1ccc(C2C3CCc4ccccc4C3=NN2S(=O)(=O)c2cccc(C(=O)O)c2OC)cc1 (stereo not given)', 'NO');

* * *

# Tested on: COLO 205
# TEST NAME: NCI tumour cell line growth inhibition, 48 h
The source made the active and inactive calls. No stated cut-off is given here; in the data, active = GI50 up to about 1.1 µM and inactive = higher.
As shown below, each of these molecules has a reported GI50 value.
REPORTED ENDPOINT: GI50

INSERT INTO measurements (molecule, reported_endpoint, result) VALUES
  ('COc1cc2c(c(OC)c1OC)-c1ccc(SC)c(=O)cc1[C@@H](NC(=O)C(F)(F)F)CC2', 'GI50', '< 0.01 µM (active)'),
  ('O=C(Oc1cncc(Cl)c1)c1cc2ccccc2sc1=O', 'GI50', '49.9 µM (inactive)'),
  ('COC(=O)c1c2c(c3[nH]c4ccccc4c3c1C(=O)OC)C(=O)C1=C(C2=O)C2(Cl)C(Cl)C(Cl)C1(Cl)C2(Cl)Cl (stereo not given)', 'GI50', '1.81 µM (inactive)'),
  ('CC(C(=O)n1ccnc1)N1c2ccccc2Sc2ccccc21 (stereo not given)', 'GI50', '79.3 µM (inactive)'),
  ('NS(=O)(=O)c1nnc(NSc2ccc([N+](=O)[O-])cc2)s1', 'GI50', '> 100 µM (inactive)'),
  ('O=C(OCCN=c1c2ccccc2ccc2ccccc12)c1ccc([N+](=O)[O-])cc1', 'GI50', '> 100 µM (inactive)'),
  ('COc1cc([C@@H]2OC(=O)C3C2C(=O)O[C@H]3c2ccc(O)c(OC)c2)ccc1O (stereo not given in full)', 'GI50', '> 100 µM (inactive)'),
  ('COC1(OC)C=CC2C1C1C=CC2C1(OC)OC (stereo not given)', 'GI50', '> 100 µM (inactive)'),
  ('O=C(Cc1nc2ccccc2c(=O)n1-c1ccccc1Cl)c1ccncc1', 'GI50', '> 100 µM (inactive)'),
  ('COc1cc2c(cc1OC)C(=O)C1(C2)[C@H](c2ccccc2)C2C(=O)c3cc(OC)c(OC)cc3C2[C@H]1c1ccccc1 (stereo not given in full)', 'GI50', '> 100 µM (inactive)');

* * *

As shown below, each of these molecules has a reported GI50 value.
# Test system: TK-10
# TEST NAME: NCI tumour cell line growth inhibition, 48 h
Activity calls are given as the source filed them. Rule as the data show it: active = GI50 up to about 1.1 µM and inactive = higher.
REPORTED ENDPOINT: GI50

INSERT INTO assay_data (molecule, reported_endpoint, result) VALUES
  ('FC(F)(F)c1nc(Br)[nH]c1C(F)(F)F', 'GI50', '> 100 µM (inactive)'),
  ('NNC(=O)CCC(NS(=O)(=O)c1ccc(Cl)cc1)C(=O)NN (stereo unspecified)', 'GI50', '> 100 µM (inactive)'),
  ('[O-][S+]1c2ccccc2N=C(c2ccc3ccccc3c2)CC1c1ccccc1F (stereo unspecified)', 'GI50', '> 100 µM (inactive)'),
  ('O=C1OCC=C1COC1OC(CO)C(O)C(O)C1O (stereo unspecified)', 'GI50', '> 100 µM (inactive)'),
  ('CCOC(=O)CC(NCc1ccc(/N=C/c2nc3ccc(C(F)(F)F)cc3nc2-c2ccccc2)cc1)C(=O)OCC (stereo unspecified)', 'GI50', '23.3 µM (inactive)'),
  ('CC(C)c1cccc(C(C)C)c1NC1=CC(=O)C(=O)c2ccccc21', 'GI50', '> 100 µM (inactive)');

* * *

# Test system: SNB-19
# TEST NAME: NCI tumour cell line growth inhibition, 48 h
Active and inactive are the calls of the source. Rule as the data show it: active = GI50 up to about 1.1 µM and inactive = higher.
REPORTED ENDPOINT: GI50

INSERT INTO assay_data (compound, reported_endpoint, result) VALUES
  ('O=C(O)C1C2CCC(O2)C1C(=O)Nc1cccc2cccnc12 (stereo not given)', 'GI50', '> 100 µM (inactive)'),
  ('COc1cccc2c1OC(c1ccc(C#N)cc1)C([N+](=O)[O-])=C2 (stereo not given)', 'GI50', '6.46 µM (inactive)'),
  ('O=C(Cc1nc2ccccc2c(=O)n1-c1ccccc1Cl)c1ccncc1', 'GI50', '> 100 µM (inactive)'),
  ('Cc1cc2c(c(/C=N/c3ccccc3O)c1)OC1(C=C2)Oc2ccccc2C(=O)N1C (stereo not given)', 'GI50', '24.7 µM (inactive)'),
  ('CCC(CN(C)C)C(=O)c1ccco1 (stereo not given)', 'GI50', '> 100 µM (inactive)'),
  ('CCN1CC2=C(N=c3s/c(=C\c4ccc(Cl)cc4)c(=O)n3C2c2ccc(Cl)cc2)/C(=C/c2ccc(Cl)cc2)C1 (stereo not given)', 'GI50', '44.4 µM (inactive)'),
  ('CN(C)CCOC1(Cc2ccc(Cl)cc2Cl)CCC(C(C)(C)C)CC1 (stereo not given)', 'GI50', '1.75 µM (inactive)'),
  ('Nc1ccc(Oc2ccc(C34CC5CC(C3)CC(c3ccc(Oc6ccc(N)cc6)cc3)(C5)C4)cc2)cc1', 'GI50', '12 µM (inactive)'),
  ('C=C(C)C1Cc2c(cc(OC)c3c(=O)c4cccc(O)c4oc23)O1 (stereo not given)', 'GI50', '26.3 µM (inactive)'),
  ('CCOC(=O)CCC(NC(=O)c1ccc(OCc2nc3ccccc3n3cccc23)cc1)C(=O)OCC (stereo not given)', 'GI50', '55.5 µM (inactive)'),
  ('C=CCNC1=C2C[C@@H](C)C[C@@H](OC)[C@H](OC(=O)CCN)[C@H](C)/C=C(\C)[C@@H](OC(N)=O)[C@H](OC)/C=C\C=C(/C)C(=O)NC(=CC1=O)C2=O', 'GI50', '6.27 µM (inactive)'),
  ('OC[C@@H](O)[C@H](O)[C@@H](O)/C=N/Nc1ccc(Cl)nn1', 'GI50', '> 100 µM (inactive)'),
  ('COC12OC3(C4OC41)C(C(=O)O[C@H]3CO[Si](C)(C)C(C)(C)C)C2C(=O)Oc1ccccc1 (stereo not given in full)', 'GI50', '> 100 µM (inactive)'),
  ('CC(C)(C)C1=CC(=C(c2ccc(-c3c4nc(c(-c5ccc(C(=C6C=C(C(C)(C)C)C(=O)C(C(C)(C)C)=C6)c6cc(C(C)(C)C)c(O)c(C(C)(C)C)c6)cc5)c5ccc([nH]5)c(-c5ccc(C(=C6C=C(C(C)(C)C)C(=O)C(C(C)(C)C)=C6)c6cc(C(C)(C)C)c(O)c(C(C)(C)C)c6)cc5)c5nc(c(-c6ccc(C(=C7C=C(C(C)(C)C)C(=O)C(C(C)(C)C)=C7)c7cc(C(C)(C)C)c(O)c(C(C)(C)C)c7)cc6)c6ccc3[nH]6)C=C5)C=C4)cc2)c2cc(C(C)(C)C)c(O)c(C(C)(C)C)c2)C=C(C(C)(C)C)C1=O', 'GI50', '> 100 µM (inactive)'),
  ('COc1ccc2[nH]cc(CCNC(C)=O)c2c1 [MELATONIN]', 'GI50', '> 100 µM (inactive)');

Cited source: ChEMBL document CHEMBL1201862
